assay_system: cruzain (Trypanosoma cruzi, UniProt P25779);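 note: at 5 µM compound concentration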
Sequence (P25779 123-337 limits assumed): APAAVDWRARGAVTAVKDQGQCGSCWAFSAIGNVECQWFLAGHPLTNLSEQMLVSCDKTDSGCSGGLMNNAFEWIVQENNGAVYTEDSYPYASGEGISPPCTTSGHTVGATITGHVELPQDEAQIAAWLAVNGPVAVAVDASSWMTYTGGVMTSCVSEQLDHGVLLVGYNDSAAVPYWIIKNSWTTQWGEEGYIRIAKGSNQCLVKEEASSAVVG
protocol_text: biochemical
test_parameters: 0’ (no pre-incubation); sheet Screening results
Listed here: items and their measured Cruzain Inhibition 0’.

compound | unit_abbrev | Cruzain Inhibition 0’
Cc1cc2ccccc2n1CC(=O)N1CC(C(=O)N2CCCCC2)Oc2ccccc21 (centres unmarked) | % | 4.7
COc1ccc(C2=NCCN2)cc1-c1cn(-c2cccc(C3=NCCN3)c2)nn1 | % | 10
COc1cc(N[C@@H](C)CCCN)c2ncccc2c1 | % | 2.8
NCCN(C(=O)c1ccc(Cl)cc1Cl)c1ccc(OCc2ccc(Cl)cc2)cc1 | % | 9
COc1ccccc1CNC(=O)c1cc(C2CC2)nc2c1cnn2C(C)C | % | 4
CC1(O)CC(c2nc(-c3ccc4ccc(-c5ccccc5)nc4c3)c3c(N)nccn23)C1 (centres unmarked) | % | 7.4
Cc1cc2nc(NC(=O)C(C)(C)C)nc(Cl)c2n1Cc1ccc(Cl)cc1 | % | 11
COc1ccccc1OCCCCn1c(C2CC2)nc2ccccc21 | % | -7
Cc1cccnc1NC(=O)c1cccc(OCc2c(C)noc2C)c1 | % | 16
Nc1ncc(-c2ccc(C(F)(F)F)nc2)cc1-c1ccc(C(F)(F)F)nc1 | % | 11
O=C(NC1CCCCC1)N1CCN(Cc2ccc3c(c2)OCO3)CC1 | % | 0.4
Cc1ncc(-c2ccnc(Nc3ccc(S(C)(=O)=O)cc3)n2)n1C(C)C | % | 22
O=S(=O)(c1ccc(Cl)cc1)N1CCN(C(=S)NCc2ccco2)CC1 | % | 8
CC(C)(C)C(O)C(Oc1ccc(-c2ccccc2)cc1)n1cncn1 (centres unmarked) | % | 14
O=C(Cn1ccnc1[N+](=O)[O-])NCc1ccccc1 | % | 19
Cc1nn(Cc2ccccc2)c(Cl)c1C(=O)NC1CCCCCC1 | % | 11
COCC(C)NC(=O)CSc1ncnc2sc(-c3ccccc3)cc12 (centres unmarked) | % | 18
N=C(N)c1ccc(-c2cc(-c3ccccc3)on2)cc1 | % | 14
CS(=O)(=O)Cc1nc2ccccc2oc1=O | % | 18
Cc1ccc(C(=O)Nc2ccc(S(=O)(=O)O)c3cc(S(=O)(=O)O)cc(S(=O)(=O)O)c23)cc1NC(=O)c1cccc(NC(=O)Nc2cccc(C(=O)Nc3cc(C(=O)Nc4ccc(S(=O)(=O)O)c5cc(S(=O)(=O)O)cc(S(=O)(=O)O)c45)ccc3C)c2)c1 | % | 32
CC(C)(C)c1cc(C(=O)Nc2cccnc2)cc(C(=O)Nc2cccnc2)c1 | % | 1.3
O=C(NCc1nnc2n1CCCCC2)c1ccc(-c2ccc(F)cc2)o1 | % | 15
CC(Oc1cccc(Cl)c1)C(=O)Nc1ccc2oc(-c3ccncc3)nc2c1 (centres unmarked) | % | 17
COC(=O)c1ccc(F)cc1NS(=O)(=O)c1cccc(-c2cnn(Cc3ccccc3)c2)c1 | % | -7
O[C@@H](c1cc(C(F)(F)F)nc2c(C(F)(F)F)cccc12)[C@H]1CCCCN1 | % | -5.4
CC(C(=O)Nc1ccc2oc(-c3ccncc3)nc2c1)c1ccccc1 (centres unmarked) | % | 19
Brc1cncc(-c2cc(NCCCn3ccnc3)nc(-c3ccccc3)n2)c1 | % | 20
Cc1cc(OCC(=O)NCc2ccccc2)c2cc(Br)ccc2n1 | % | 6.4
CC(C)n1ncc2c(C(=O)NCC(c3cccs3)N3CCOCC3)cc(-c3ccccc3)nc21 (centres unmarked) | % | 6
c1ccc(-c2cc(N3CCCCC3)c3ccccc3n2)nc1 | % | 5.5
CC(C)N=c1cc2n(-c3ccc(Cl)cc3)c3ccccc3nc-2cc1Nc1ccc(Cl)cc1 | % | 23
O=C(Nc1nc(-c2ccccn2)cs1)c1cncn1-c1ccccc1 | % | -27
